Where do the numbers come from? From patent US4762701A.

test system: Yac cells; assay: Doubling time of Yac cells after thirty minutes exposure to osmolarity regulating agents; assay type: cell-based, mouse; details: after thirty minutes exposure, PBS is the comparator
Output: class label from Doubling Time. Mapping: class A = under 40 h, class B = from 40 h up to 70 h, class C = 70 h and over

Illustrative cases are given below, each with its answer.
O=C(O)CN(CCO)CCO [BICINE, N,N--bis(2-hydroxyethyl)glycine]: class B
NCCCS(=O)(=O)O [3-Amino-1-propanesulfonic acid]: class C

Pending compound:
// query Consider O=S(=O)(O)CCCNC1CCCCC1 [CAPS] . To which Doubling Time class does it belong?
// result class B

###

test system: Yac cells; test: Doubling time of Yac cells after thirty minutes exposure to osmolarity regulating agents; type: cell-based, mouse; details: after thirty minutes exposure, PBS is the comparator
Peptide text beside a SMILES is read from it.
# if measured Doubling Time < 40 h: 1.0  # else: 0.0

Illustrative cases are given below, each with its answer.
O=S(=O)(O)CC(O)CN1CCOCC1 (stereo not drawn) [MOPSO]: 0.0
O=S(=O)(O)CCNC1CCCCC1 [CHES]: 0.0
O=S(=O)(O)CCCNC(CO)(CO)CO [TAPS]: 1.0
NCC(=O)NCC(=O)O [Glycylglycine] (H-Gly-Gly-OH): 0.0

// query Record O=S(=O)(O)CC(O)CN(CCO)CCO (stereo not drawn) [DIPSO] : is its Doubling Time strictly below 40 h?
// result 1.0

// query Record O=C[C@H](O)[C@@H](O)[C@H](O)[C@H](O)CO [Glucose] : is its Doubling Time strictly below 40 h?
// result 1.0

// query Record O=S(=O)(O)CCCN1CCN(CCO)CC1 [EPPS] : is its Doubling Time strictly below 40 h?
// result 1.0

// query Record O=S(=O)(O)CC(O)CNC(CO)(CO)CO (stereo not drawn) [TAPSO] : is its Doubling Time strictly below 40 h?
// result 0.0

// query Record O=S(=O)(O)CC(O)CN1CCN(CCO)CC1 (stereo not drawn) [HEPPSO] : is its Doubling Time strictly below 40 h?
// result 1.0

// query Record N[C@H]1C(O)O[C@H](CO)[C@@H](O)[C@@H]1O (stereo partly drawn) [Glucosamine] : is its Doubling Time strictly below 40 h?
// result 0.0

// query Record NC(=O)CNCCS(=O)(=O)O [ACES] : is its Doubling Time strictly below 40 h?
// result 0.0
